- tgt: Neuronal acetylcholine receptor; alpha4/beta2 (Rattus norvegicus, UniProt P09483+P12390)
- Sequence (P09483 whole entry): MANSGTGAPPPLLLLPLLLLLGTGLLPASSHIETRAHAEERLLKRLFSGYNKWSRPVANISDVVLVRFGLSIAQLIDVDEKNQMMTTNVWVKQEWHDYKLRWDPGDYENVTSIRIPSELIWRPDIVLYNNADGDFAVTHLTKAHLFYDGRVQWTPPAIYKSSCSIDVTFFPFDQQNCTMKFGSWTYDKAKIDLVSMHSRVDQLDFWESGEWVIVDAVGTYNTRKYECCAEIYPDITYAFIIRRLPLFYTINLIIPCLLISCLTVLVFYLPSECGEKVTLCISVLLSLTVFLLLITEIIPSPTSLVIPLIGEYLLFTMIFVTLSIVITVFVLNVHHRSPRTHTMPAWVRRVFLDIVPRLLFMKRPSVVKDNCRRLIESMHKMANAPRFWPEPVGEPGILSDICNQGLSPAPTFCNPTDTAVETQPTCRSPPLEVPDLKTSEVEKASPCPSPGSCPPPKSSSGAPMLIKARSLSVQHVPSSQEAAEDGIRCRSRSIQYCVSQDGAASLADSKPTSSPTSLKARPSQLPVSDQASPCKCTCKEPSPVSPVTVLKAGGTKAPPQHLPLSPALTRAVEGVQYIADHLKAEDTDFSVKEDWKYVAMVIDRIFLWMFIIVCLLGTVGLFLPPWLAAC
- Sequence (P12390 whole entry): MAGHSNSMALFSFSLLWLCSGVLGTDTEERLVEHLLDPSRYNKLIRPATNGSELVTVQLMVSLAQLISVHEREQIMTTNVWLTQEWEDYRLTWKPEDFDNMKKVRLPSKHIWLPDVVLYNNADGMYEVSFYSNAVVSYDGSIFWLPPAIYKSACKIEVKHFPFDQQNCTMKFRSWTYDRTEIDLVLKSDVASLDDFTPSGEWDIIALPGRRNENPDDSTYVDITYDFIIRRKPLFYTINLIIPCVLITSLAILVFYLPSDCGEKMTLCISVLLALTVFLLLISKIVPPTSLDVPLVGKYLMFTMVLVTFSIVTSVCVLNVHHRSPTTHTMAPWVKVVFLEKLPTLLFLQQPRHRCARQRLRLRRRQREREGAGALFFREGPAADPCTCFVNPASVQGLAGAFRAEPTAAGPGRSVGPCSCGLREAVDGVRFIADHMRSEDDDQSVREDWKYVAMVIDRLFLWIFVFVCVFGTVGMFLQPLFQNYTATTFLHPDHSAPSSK
- measurement-protocol: Inhibition of [3H]epibatidine binding to Nicotinic acetylcholine receptor alpha4-beta2 in rat cerebral cortex
- Format: tissue-based
pKi: −log10 of the molar value.
Think of 10 as a floor: if pKi stands on it or above, it is met; beneath it, not met.

Answered cases to consult:
Ic1cncc(C2CC3CCC2N3)c1 (single isomer, unassigned; (+)) | met
Ic1cncc(C2CC3CCC2N3)c1 (single isomer, unassigned; (-)) | met
Brc1cncc(C2CC3CCC2N3)c1 (stereo not drawn) | met

Identify whether the reported pKi of the following molecule is 10 or greater: C#Cc1cncc(C2CC3CCC2N3)c1 (stereo not drawn)
met

Identify whether the reported pKi of the following molecule is 10 or greater: C=Cc1cncc(C2CC3CCC2N3)c1 (stereo not drawn)
not met

Identify whether the reported pKi of the following molecule is 10 or greater: CN1C2CCC1C(c1cncc(I)c1)C2 (stereo not drawn)
met

====

- Species: Mus musculus
- measurement-protocol: Effective dose to induce spontaneous activity in mouse was determined
- Assay type: functional
- reported-conditions: Mus musculus; read-out: ED50
reported-metric: ED50

The cases that follow already have their ED50 on record.
Brc1cncc(C2CC3CCC2N3)c1 (centres undefined) | 0.1 mg/kg
C#Cc1cncc(C2CC3CCC2N3)c1 (centres undefined) | 0.001 mg/kg
Clc1ccc(C2CC3CCC2N3)cn1 (centres undefined) [EPIBATIDINE] | 0.001 mg/kg
CN1C2CCC1C(c1cncc(I)c1)C2 (centres undefined) | 0.03 mg/kg
Clc1cncc(C2CC3CCC2N3)c1 (centres undefined) | 0.04 mg/kg
Nc1cncc(C2CC3CCC2N3)c1 (centres undefined) | 0.9 mg/kg

Reported ED50 for Fc1cncc(C2CC3CCC2N3)c1 (centres undefined) was 0.023 mg/kg

Reported ED50 for C=Cc1cncc(C2CC3CCC2N3)c1 (centres undefined) was 0.2 mg/kg

Reported ED50 for CN1CCC[C@H]1c1cccnc1 [NICOTINE] was 0.5 mg/kg

====

- Species: Mus musculus
- measurement-protocol: Effective dose to induce antinociception in mouse determined in tail-flick test
- Assay type: functional
- reported-conditions: Mus musculus, Tail; read-out: ED50
reported-metric: ED50 (mg/kg)
Lab book: enter the figure in mg/kg, no units written.

Nc1cncc(C2CC3CCC2N3)c1 (stereo not given) | 4.7
C=Cc1cncc(C2CC3CCC2N3)c1 (stereo not given) | 1
CN1C2CCC1C(c1cncc(I)c1)C2 (stereo not given) | 0.6
Ic1cncc(C2CC3CCC2N3)c1 (stereo in doubt; 3d) | 0.8
Brc1cncc(C2CC3CCC2N3)c1 (stereo not given) | 1.2
Fc1cncc(C2CC3CCC2N3)c1 (stereo not given) | 0.08
Clc1cncc(C2CC3CCC2N3)c1 (stereo not given) | 0.3
C#Cc1cncc(C2CC3CCC2N3)c1 (stereo not given) | 1

Reported ED50 for CN1CCC[C@H]1c1cccnc1 was 1.3

Reported ED50 for Clc1ccc(C2CC3CCC2N3)cn1 (stereo not given) [EPIBATIDINE] was 0.006

====

Ki values for the compounds below.
- tgt: Neuronal acetylcholine receptor subunit alpha-7 (Rattus norvegicus, UniProt Q05941)
- Sequence (Q05941 whole entry): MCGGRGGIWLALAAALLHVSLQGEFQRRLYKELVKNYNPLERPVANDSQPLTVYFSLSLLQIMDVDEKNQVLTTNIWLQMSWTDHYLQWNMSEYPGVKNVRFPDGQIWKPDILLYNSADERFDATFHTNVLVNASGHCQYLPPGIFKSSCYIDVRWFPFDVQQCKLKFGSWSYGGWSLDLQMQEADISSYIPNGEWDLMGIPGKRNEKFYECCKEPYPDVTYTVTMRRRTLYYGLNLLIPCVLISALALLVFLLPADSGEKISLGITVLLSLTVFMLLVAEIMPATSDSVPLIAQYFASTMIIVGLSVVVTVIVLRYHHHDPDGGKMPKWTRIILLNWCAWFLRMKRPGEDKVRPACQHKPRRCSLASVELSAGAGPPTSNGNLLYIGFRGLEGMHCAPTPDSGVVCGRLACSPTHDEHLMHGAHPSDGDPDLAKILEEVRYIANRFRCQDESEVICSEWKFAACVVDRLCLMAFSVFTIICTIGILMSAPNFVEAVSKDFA
- measurement-protocol: Inhibition of [125I]-iodo-MLA binding to Nicotinic acetylcholine receptor alpha-7 in rat cerebral cortex
Lab book: enter the figure in nM, no units written.

Reported Ki for Ic1cncc(C2CC3CCC2N3)c1 (stereo in doubt; 3d) was 150
